test.protocol: Reversal of P-gp-mediated multidrug resistance in human KBV cells assessed as potentiation of vincristine-induced cytotoxicity by measuring vincristine IC50 at 10 uM after 72 hrs by MTT assay (Rvb = 2.92 +/- 0.31 nM)
measured.attribute: pIC50
// pIC50 is dimensionless: -log10 of concentration (M)

Data request, read-out pIC50, for "CC(=O)O[C@H]1C[C@@]2(C)[C@@H](C[C@@H](O)[C@H]3[C@@]4(C)CC[C@@H](O)[C@@H](C)[C@@H]4CC[C@@]32C)/C1=C(\CCC=C(C)C)C(=O)OCc1ccccc1"
7.04

* * *

test.protocol: Reversal of P-gp-mediated multidrug resistance in human KBV cells assessed as potentiation of paclitaxel-induced cytotoxicity by measuring paclitaxel IC50 at 10 uM after 72 hrs by MTT assay (Rvb = 352.31 +/- 10.9 nM)
measured.attribute: IC50 (nM)
Use nM as the unit, but write only the number.

Data request, read-out IC50, for "CC(=O)O[C@H]1C[C@@]2(C)[C@@H](C[C@@H](O)[C@H]3[C@@]4(C)CC[C@@H](O)[C@@H](C)[C@@H]4CC[C@@]32C)/C1=C(\CCC=C(C)C)C(=O)OCc1ccccc1"
7

Source listed as BindingDB's records for doi:10.1016/j.ejmech.2019.111668.
